List of IC50 values.
- tgt: Tyrosine-protein kinase Fyn (Homo sapiens)
- Sequence (P06241 whole entry): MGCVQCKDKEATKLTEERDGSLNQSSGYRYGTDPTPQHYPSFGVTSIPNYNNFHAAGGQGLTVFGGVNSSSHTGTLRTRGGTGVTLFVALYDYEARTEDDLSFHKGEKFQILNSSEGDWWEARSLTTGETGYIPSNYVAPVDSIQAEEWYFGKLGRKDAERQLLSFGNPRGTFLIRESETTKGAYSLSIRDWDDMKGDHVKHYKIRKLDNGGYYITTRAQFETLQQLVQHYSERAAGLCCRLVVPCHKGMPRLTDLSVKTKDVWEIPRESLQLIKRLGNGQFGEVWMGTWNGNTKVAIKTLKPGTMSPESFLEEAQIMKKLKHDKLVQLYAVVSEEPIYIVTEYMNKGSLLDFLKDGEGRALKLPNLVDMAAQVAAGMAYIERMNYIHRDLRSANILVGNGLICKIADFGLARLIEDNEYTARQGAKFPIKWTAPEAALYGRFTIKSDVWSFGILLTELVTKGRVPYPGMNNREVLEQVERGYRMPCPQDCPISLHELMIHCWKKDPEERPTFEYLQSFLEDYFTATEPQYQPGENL
Record the value in nM, omitting the unit from your answer.

Solved cases below.
# structure as smiles, unit string, IC50
rows = [
    ("CCN1CCN(c2cc(Nc3cc(CCc4ccc(F)c(NC(=O)c5cccc(C(F)(F)F)c5)c4)n[nH]3)nc(C)n2)CC1", "nM", 22),
    ("Cc1nc(Nc2cc(CCc3ccc(F)c(NC(=O)c4cccc(C(F)(F)F)c4)c3)n[nH]2)cc(N2CC(O)C2)n1", "nM", 18),
    ("Cc1nc(Nc2cc(CCc3cc(NC(=O)c4cccc(C(F)(F)F)c4)ccc3F)n[nH]2)cc(N2CCN(CCO)CC2)n1", "nM", 6),
]

Query compound follows.
Exercise: Provide the documented IC50 with Tyrosine-protein kinase Fyn (Homo sapiens) as the system for Cc1nc(Nc2cc(CCc3cc(NC(=O)c4cccc(C(F)(F)F)c4)ccc3F)n[nH]2)cc(N2CC(O)C2)n1
Solution: 10
